Data origin, for the record: the supplement of paper PMC10849652

- assayed_system: ZC3H8 (UniProt Q8N5P1)
- Sequence (Q8N5P1 whole entry, looked up): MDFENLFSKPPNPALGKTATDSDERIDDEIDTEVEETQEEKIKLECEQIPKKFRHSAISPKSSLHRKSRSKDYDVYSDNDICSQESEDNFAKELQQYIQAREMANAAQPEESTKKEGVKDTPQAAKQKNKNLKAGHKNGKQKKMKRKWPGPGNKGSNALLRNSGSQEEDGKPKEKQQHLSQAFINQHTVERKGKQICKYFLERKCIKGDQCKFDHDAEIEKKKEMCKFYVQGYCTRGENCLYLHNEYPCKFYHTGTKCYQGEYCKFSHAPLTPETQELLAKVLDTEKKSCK
- experiment_summary: log2 fold change, soluble protein after heating vs DMSO (PISA); higher = thermal stabilisation; K562 cells, 10 uM, 30 min; active = over 0.2 and 3.5 SD of the protein, either way, in both replicates (recomputed)
The full data set covers some 7,900 targets. This sample favours those with a hit. About 0.6% of all pairs of compound and target were hits.
Possible outcomes: active, inactive

{"columns": ["molecule", "assayed_system", "class_name"],
 "data": [
  ["CC(C)N(C[C@H]1O[C@@H](n2cnc3c(N)ncnc32)[C@H](O)[C@@H]1O)[C@H]1C[C@@H](CCc2nc3cc(C(C)(C)C)ccc3[nH]2)C1", "ZC3H8 (UniProt Q8N5P1)", "inactive"],
  ["C#Cc1cccc(Nc2ncnc3cc(OCCOC)c(OCCOC)cc23)c1", "ZC3H8 (UniProt Q8N5P1)", "inactive"],
  ["CNCc1ccc(-c2[nH]c3cc(F)cc4c3c2CCNC4=O)cc1", "ZC3H8 (UniProt Q8N5P1)", "inactive"],
  ["CC(C)c1cnn2c(NCc3ccccc3)cc(NCCCCCCN)nc12", "ZC3H8 (UniProt Q8N5P1)", "inactive"],
  ["CN(C)CC(=O)Nc1ccc2[nH]c(=O)c3ccccc3c2c1", "ZC3H8 (UniProt Q8N5P1)", "inactive"],
  ["CO[C@H]1C[C@@H]2CC[C@@H](C)[C@@](O)(O2)C(=O)C(=O)N2CCCC[C@H]2C(=O)O[C@H]([C@H](C)C[C@@H]2CC[C@H](n3cnnn3)[C@H](OC)C2)CC(=O)[C@H](C)/C=C(\\C)[C@@H](O)[C@@H](OC)C(=O)[C@H](C)C[C@H](C)/C=C/C=C/C=C/1C", "ZC3H8 (UniProt Q8N5P1)", "inactive"],
  ["CC(=O)c1cnc2ccc(-c3cc(Cl)c(O)c(Cl)c3)nc2c1N[C@H]1CC[C@H](CN(C)C)CC1", "ZC3H8 (UniProt Q8N5P1)", "inactive"],
  ["CN1CCC(CNc2ccc3ncc(-c4cccc(OC(F)(F)F)c4)n3n2)CC1", "ZC3H8 (UniProt Q8N5P1)", "active"],
  ["O=C1NC(=O)C(c2cnc3ccccn23)=C1c1cn2c3c(cc(F)cc13)CN(C(=O)N1CCCCC1)CC2", "ZC3H8 (UniProt Q8N5P1)", "inactive"],
  ["CC[C@H](C)[C@H](NC(=O)[C@H]([C@@H](C)CC)N(C)C(C)=O)C(=O)N[C@H](C(=O)N[C@@H](CC(C)C)C(=O)[C@@]1(C)CO1)[C@@H](C)O", "ZC3H8 (UniProt Q8N5P1)", "inactive"],
  ["C[C@@H]1COCCN1c1cc(C2(S(C)(=O)=O)CC2)nc(-c2cccc3[nH]ccc23)n1", "ZC3H8 (UniProt Q8N5P1)", "inactive"],
  ["CN1CCc2c(c3ccccc3n2Cc2ccc(C(=O)NO)cc2)C1", "ZC3H8 (UniProt Q8N5P1)", "inactive"],
  ["NC(=O)c1ccc2nc(-c3ccc(Oc4ccc(Cl)cc4)cc3)[nH]c2c1", "ZC3H8 (UniProt Q8N5P1)", "inactive"],
  ["CC(C)(C)Cn1c(N)nc2ccc(-c3[nH]c(C(C)(C)C)nc3-c3ccc(F)cc3)nc21", "ZC3H8 (UniProt Q8N5P1)", "inactive"],
  ["Cc1ncc(-c2ccnc(Nc3ccc(S(C)(=O)=O)cc3)n2)n1C(C)C", "ZC3H8 (UniProt Q8N5P1)", "inactive"],
  ["Cc1cc(Nc2cc(N3CCN(C)CC3)nc(Sc3ccc(NC(=O)C4CC4)cc3)n2)n[nH]1", "ZC3H8 (UniProt Q8N5P1)", "inactive"],
  ["C=CC(=O)N1CCC[C@@H](n2nc(-c3ccc(Oc4ccccc4)cc3)c3c(N)ncnc32)C1", "ZC3H8 (UniProt Q8N5P1)", "inactive"],
  ["CNC(=O)c1ccc(Nc2ncc(C(F)(F)F)c(NCc3nccnc3N(C)S(C)(=O)=O)n2)cc1", "ZC3H8 (UniProt Q8N5P1)", "inactive"],
  ["O=C(CCCCCCC(=O)Nc1ccccc1)NO", "ZC3H8 (UniProt Q8N5P1)", "inactive"],
  ["CCN(CCCOc1ccc2c(Nc3cc(CC(=O)Nc4cccc(F)c4)[nH]n3)ncnc2c1)CCOP(=O)(O)O", "ZC3H8 (UniProt Q8N5P1)", "inactive"],
  ["Cc1nc(Nc2ncc(C(=O)Nc3c(C)cccc3Cl)s2)cc(N2CCN(CCO)CC2)n1", "ZC3H8 (UniProt Q8N5P1)", "inactive"],
  ["CS(=O)(=O)c1ccc(-c2cnc(N)c(C(=O)Nc3ccccc3)n2)cc1", "ZC3H8 (UniProt Q8N5P1)", "inactive"],
  ["Cn1c2cc(S(C)=O)sc2c2cnn(Cc3cccc(N)c3)c(=O)c21 (stereo not given)", "ZC3H8 (UniProt Q8N5P1)", "inactive"],
  ["Cc1ccc(-n2nc(C(C)(C)C)cc2NC(=O)Nc2ccc(OCCN3CCOCC3)c3ccccc23)cc1", "ZC3H8 (UniProt Q8N5P1)", "inactive"],
  ["Cc1ccc2c(=O)c3ccccc3n(CCCN)c2c1C", "ZC3H8 (UniProt Q8N5P1)", "inactive"],
  ["NC(=O)c1cnc(N[C@@H]2CCCC[C@@H]2N)nc1Nc1cccc(-n2nccn2)c1", "ZC3H8 (UniProt Q8N5P1)", "inactive"],
  ["Cc1cn(-c2cc(NC(=O)c3ccc(C)c(Nc4nccc(-c5cccnc5)n4)c3)cc(C(F)(F)F)c2)cn1", "ZC3H8 (UniProt Q8N5P1)", "inactive"],
  ["CC(C)C[C@@H](C=O)NC(=O)[C@H](CC(C)C)NC(=O)[C@H](CC(C)C)NC(=O)OCc1ccccc1", "ZC3H8 (UniProt Q8N5P1)", "inactive"],
  ["COc1cc(C(=O)O)ccc1NC(=O)[C@@H]1N[C@@H](CC(C)(C)C)[C@](C#N)(c2ccc(Cl)cc2F)[C@H]1c1cccc(Cl)c1F", "ZC3H8 (UniProt Q8N5P1)", "inactive"],
  ["C[C@@H](Oc1cc(-c2cnn(C3CCNCC3)c2)cnc1N)c1c(Cl)ccc(F)c1Cl", "ZC3H8 (UniProt Q8N5P1)", "inactive"]
]}
